Target: KRAS G12V (Homo sapiens (Human), UniProt P01116+P62937, G12V)
Sequence (P01116-2 other isoform, or with tags, fused parts or gaps G12V): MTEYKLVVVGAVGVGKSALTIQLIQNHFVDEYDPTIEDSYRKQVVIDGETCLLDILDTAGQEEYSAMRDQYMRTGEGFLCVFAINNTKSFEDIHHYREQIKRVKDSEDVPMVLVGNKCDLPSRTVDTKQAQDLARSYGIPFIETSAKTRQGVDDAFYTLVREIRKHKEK
Sequence (P62937 whole entry): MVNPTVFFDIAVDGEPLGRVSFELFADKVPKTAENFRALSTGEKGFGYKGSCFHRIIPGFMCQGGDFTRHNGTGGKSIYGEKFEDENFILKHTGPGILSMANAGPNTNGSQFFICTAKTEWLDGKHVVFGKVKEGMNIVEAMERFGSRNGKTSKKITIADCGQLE
Assay: Ras-Raf (BRAF RBD) disruption / FRET / MOA assay, KRAS G12V
Assay type: biochemical
Conditions: read-out: IC50* KRAS G12V FRET data
pIC50: −log10 of the molar value.
MEASURED_PROPERTY: pIC50

Examples with answers:
MOLECULE	pIC50
CC#CC(=O)N1CC[C@H](C(=O)N(C)[C@H](C(=O)N[C@H]2Cc3nc(ns3)-c3ccc4c(c3)c(c(-c3cccnc3[C@H](C)OC)n4CC)CC(C)(C)COC(=O)[C@@H]3CCCN(N3)C2=O)C(C)C)C1 (atropisomer, axis not shown)	5.00 to 6.00
C=C(C)C(=O)N1CC2(CCN(C(=O)N(C)[C@H](C(=O)N[C@H]3Cc4nc(cs4)-c4ccc5c(c4)c(c(-c4cccnc4[C@H](C)OC)n5CC)CC(C)(C)COC(=O)[C@@H]4CCCN(N4)C3=O)C(C)C)CC2)C1 (atropisomer, axis not shown)	6.00 to 7.00
CCn1c(-c2cccnc2[C@H](C)OC)c2c3cc(ccc31)-c1cnc(o1)C[C@H](NC(=O)[C@H](C(C)C)N(C)C(=O)[C@H]1CCN(C(=O)C#CC(C)(C)N(C)C)C1)C(=O)N1CCC[C@H](N1)C(=O)OCC(C)(C)C2 (atropisomer, axis not shown)	5.00 to 6.00
CCn1c(-c2cccnc2COC)c2c3cc(ccc31)-c1cccc(c1)C[C@H](NC(=O)[C@H](C(C)C)N(C)C(=O)[C@H]1CCN(C(=O)C#CCN(C)C)C1)C(=O)N1CCC[C@H](N1)C(=O)OCC(C)(C)C2 (atropisomer, axis not shown)	5.00 to 6.00
CCn1c(-c2cccnc2[C@H](C)OC)c2c3cc(ccc31)-c1cc(O)cc(c1)C[C@H](NC(=O)[C@H](C(C)C)N(C)C(=O)[C@H]1CCN(C(=O)C#CC3(N(C)C)COC3)C1)C(=O)N1CCC[C@H](N1)C(=O)OCC(C)(C)C2	6.00 to 7.00
C=CC(=O)N1C[C@@H](C)N(C(=O)N(C)[C@H](C(=O)N[C@H]2Cc3nc(cs3)-c3ccc4c(c3)c(c(-c3cccnc3[C@H](C)OC)n4CC)CC(C)(C)COC(=O)[C@@H]3CCCN(N3)C2=O)C(C)C)[C@H](C)C1 (atropisomer, axis not shown)	7.00 to 8.00

Dear colleague, could you send me pIC50 for each of the items below? Thanks.
1. C=CC(=O)N1CC[C@H](C(=O)N(C)[C@H](C(=O)N[C@H]2Cc3cc(O)cc(c3)-c3ccc4c(c3)c(c(-c3cc(CN(C)C)nn3C)n4CC)CC(C)(C)COC(=O)[C@@H]3CCCN(N3)C2=O)C(C)C)C1
2. CO[C@@H](C)c1ncccc1-c1c2c3cc(ccc3n1CC(F)(F)F)-c1nc(co1)C[C@H](NC(=O)[C@@H](COC1CN(C(=O)C#CC(C)(C)N(C)C)C1)C(C)C)C(=O)N1CCC[C@H](N1)C(=O)OCC(C)(C)C2 (atropisomer, axis not shown)

RESULT:
5.00 to 6.00
< 5.00
